Origin of the recorded values: ChEMBL document CHEMBL5226345

assay: Inhibition of Toxoplasma gondii LDH1
Property: IC50; scope: individual molecules

{"Molecule smiles": "Cc1cc2c(C(C)C)c(O)c(O)c(C=O)c2c(O)c1-c1c(C)cc2c(C(C)C)c(O)c(O)c(C=O)c2c1O", "IC50, nM": 700}
{"Molecule smiles": "CCCc1c(O)c(O)c(C(=O)O)c2cc(Cc3ccccc3)c(C)cc12", "IC50, nM": 3500}
